Tested on: Candida albicans
experiment-description: Antifungal activity against Candida albicans
Type: functional
The source made the active and inactive calls. The calls are words filed in the database; no cut-off is given here.
// one of active, inactive, no free text

Short answer needed: outcome of this test for `COc1cc2c3c(cc(=O)oc3c1)-c1cc(O)c(OC)cc1O2` ? inactive

I'd appreciate the recorded outcome for `COc1cc(O)c2c(-c3ccc(OC)c(O)c3)cc(=O)oc2c1` from this test. active

// outcome(item) with item = `COc1cc(O[C@@H]2O[C@H](COC(C)=O)[C@H](O)[C@H](O)[C@H]2O)c2c(-c3ccc(O)c(O)c3)cc(=O)oc2c1` active

Outcome logged for `COc1cc(O[C@@H]2O[C@H](CO)[C@@H](O)[C@H](O)[C@H]2O)c2c(-c3ccc(O)c(O)c3)cc(=O)oc2c1` in this assay: active

Could you check what this test reported for `COc1cc(O)c2c(-c3ccc(O)c(O)c3)cc(=O)oc2c1` ? inactive

Entry `COc1ccc(-c2cc(=O)oc3cc(OC)cc(O[C@@H]4O[C@H](CO)[C@H](O)[C@H](O)[C@H]4O)c23)cc1` : call = ? active
